Reference source for all entries: PubChem BioAssay (NCI)

Reported log10 TGI is given for each of the following compounds.
System: LOX IMVI melanoma
EXPERIMENT SUMMARY: NCI tumour cell line growth inhibition, 48 h
ASSAY METRIC: log10 TGI (log10 of the value in µM)

- COMPOUND: "N/C(=N/O)c1cn(C2OC(CO)C(O)C2O)c2ncnc(NO)c12 (stereo not drawn)"
  SYSTEM UNDER TEST: "LOX IMVI melanoma"
  log10 TGI: 0.66
- COMPOUND: "COC(=O)C1CCCCCCCCCCC12SCCCS2 (stereo not drawn)"
  SYSTEM UNDER TEST: "LOX IMVI melanoma"
  log10 TGI: 1.55
- COMPOUND: "c1ccc(CNc2nc(Nc3ccc(-c4nc5ccccc5[nH]4)cc3)c3cn[nH]c3n2)cc1"
  SYSTEM UNDER TEST: "LOX IMVI melanoma"
  log10 TGI: 0.53
- COMPOUND: "NCCCNCCCNc1nc2ccccc2c2[nH]c3ccccc3c12"
  SYSTEM UNDER TEST: "LOX IMVI melanoma"
  log10 TGI: 0.05
- COMPOUND: "CCN(CC)c1ccc(/C=C/C2=[N+](C)c3ccccc3C2(C)C)cc1"
  SYSTEM UNDER TEST: "LOX IMVI melanoma"
  log10 TGI: 1.36
- COMPOUND: "CC1(C)CC[C@]2(C(=O)O)CCC3(C)C(=CCC4[C@@]5(C)CC[C@H](OC6OCC(O)C(O)C6OC6OC(CO)C(O)C(O)C6O)C(C)(C)C5CC[C@]43C)C2C1 (stereo partly drawn)"
  SYSTEM UNDER TEST: "LOX IMVI melanoma"
  log10 TGI: 0.62
- COMPOUND: "COc1cccc2c(=O)c3c(O)c4cc(N(C)C)ccc4c(OC(C)=O)c3oc12"
  SYSTEM UNDER TEST: "LOX IMVI melanoma"
  log10 TGI: 1.39
- COMPOUND: "CC/C(=C(/CC)c1ccc(OP(=O)([O-])[O-])cc1)c1ccc(OP(=O)([O-])[O-])cc1.N.N.N.N.[Pt+4].[Pt+4]"
  SYSTEM UNDER TEST: "LOX IMVI melanoma"
  log10 TGI: 1.08
- COMPOUND: "O=C(c1no[n+]([O-])c1C(=O)c1csc2ccccc12)c1csc2ccccc12"
  SYSTEM UNDER TEST: "LOX IMVI melanoma"
  log10 TGI: 0.73
- COMPOUND: "COc1cc(C2c3cc4c(cc3[C@@H](OCCN)[C@H]3COC(=O)C23)OCO4)cc(OC)c1O (stereo partly drawn)"
  SYSTEM UNDER TEST: "LOX IMVI melanoma"
  log10 TGI: -0.40
- COMPOUND: "COC(=O)[C@@H](COC(=O)/C=C/c1ccc(OC(C)=O)c(OC(C)=O)c1)NC(=O)/C=C/c1ccc(OC(C)=O)c(OC(C)=O)c1"
  SYSTEM UNDER TEST: "LOX IMVI melanoma"
  log10 TGI: 1.58
- COMPOUND: "C/C(=N\\NC(=S)Nc1ccccc1)c1ccccn1"
  SYSTEM UNDER TEST: "LOX IMVI melanoma"
  log10 TGI: 0.31
- COMPOUND: "CNC1=C(C)C(=O)C2=C(C1=O)C(COC(N)=O)C1(OC)C3NC3CN21 (stereo not drawn)"
  SYSTEM UNDER TEST: "LOX IMVI melanoma"
  log10 TGI: 0.15
- COMPOUND: "CCOc1ccc(NC(=O)/C(=C/c2ccccc2)C(C)=O)cc1"
  SYSTEM UNDER TEST: "LOX IMVI melanoma"
  log10 TGI: 1.40
- COMPOUND: "O=C1c2cccnc2-c2nc(-c3ccccc3)cc3c2c1nc1ccccc13"
  SYSTEM UNDER TEST: "LOX IMVI melanoma"
  log10 TGI: 1.51
- COMPOUND: "c1ccc(COc2ccc(Nc3ncnc4ccc(-c5ccco5)cc34)cc2)cc1"
  SYSTEM UNDER TEST: "LOX IMVI melanoma"
  log10 TGI: 0.95
